- System: Escherichia coli
- method_notes: Bactericidal activity against Escherichia coli ATCC 35210 after 24 hrs
- Format: functional
- run_parameters: ATCC 35210, 24 h
recorded_endpoint: MBC

Example results:
{"entry_smiles": "CNc1nc(C)c(C(=O)/C=C/c2ccccc2)s1", "test_system": "Escherichia coli", "MBC": "388 µM"}
{"entry_smiles": "CNc1nc(C)c(C(=O)/C=C/c2cccc([N+](=O)[O-])c2)s1", "test_system": "Escherichia coli", "MBC": "330 µM"}
{"entry_smiles": "CNc1nc(C)c(C(=O)/C=C/c2c(Cl)cccc2Cl)s1", "test_system": "Escherichia coli", "MBC": "306 µM"}
{"entry_smiles": "CNc1nc(C)c(C(=O)/C=C/c2ccc([N+](=O)[O-])cc2)s1", "test_system": "Escherichia coli", "MBC": "330 µM"}
{"entry_smiles": "CNc1nc(C)c(C(=O)/C=C/c2ccc(OC)cc2)s1", "test_system": "Escherichia coli", "MBC": "513 µM"}

# batch size: 3; output MBC per entry
1. CNc1nc(C)c(C(=O)/C=C/c2ccc(Cl)cc2)s1
2. CNc1nc(C)c(C(=O)/C=C/c2cccc(Cl)c2)s1
3. CNc1nc(C)c(C(=O)/C=C/c2ccccc2OC)s1

# output
1: 342 µM; 2: 342 µM; 3: 347 µM
